# Human IL-21R-BaF3 Proliferation IC50 per record follows
Assayed Target: human IL-21R expressed on cells (human, UniProt Q9HBE5 20-538)
Sequence (Q9HBE5 20-538 limits assumed): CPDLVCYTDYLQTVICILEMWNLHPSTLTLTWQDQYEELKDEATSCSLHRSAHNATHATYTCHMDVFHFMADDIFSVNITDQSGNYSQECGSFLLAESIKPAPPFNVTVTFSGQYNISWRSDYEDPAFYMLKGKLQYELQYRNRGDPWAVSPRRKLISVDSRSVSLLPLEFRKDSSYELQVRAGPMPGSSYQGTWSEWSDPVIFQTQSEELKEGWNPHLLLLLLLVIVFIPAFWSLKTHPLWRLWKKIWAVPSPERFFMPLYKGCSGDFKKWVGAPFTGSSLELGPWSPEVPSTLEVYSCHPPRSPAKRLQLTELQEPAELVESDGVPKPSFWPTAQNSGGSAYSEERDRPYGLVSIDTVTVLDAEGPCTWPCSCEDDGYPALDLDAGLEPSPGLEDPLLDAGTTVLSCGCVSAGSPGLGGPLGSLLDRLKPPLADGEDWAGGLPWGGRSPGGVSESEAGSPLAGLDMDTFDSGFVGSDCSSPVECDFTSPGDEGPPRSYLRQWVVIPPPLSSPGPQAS
Procedure Summary: cell-based or functional assay
Could you give me the number in nM? Just the number is fine.

Field: example entries. Status: answers known.
{"Binder": "AbR (antibody, human IgG1, V domains shown, CDR3 graft, residue limits derived as for m29; also called VH3/VL18; VH3DM/VL18) VH: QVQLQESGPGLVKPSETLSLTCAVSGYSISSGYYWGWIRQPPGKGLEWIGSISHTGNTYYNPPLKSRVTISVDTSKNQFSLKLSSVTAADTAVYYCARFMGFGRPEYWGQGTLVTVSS VL: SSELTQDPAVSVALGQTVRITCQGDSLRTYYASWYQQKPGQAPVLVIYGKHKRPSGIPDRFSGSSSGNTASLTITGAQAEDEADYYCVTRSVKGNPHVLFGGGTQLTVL", "Experimental Result": 0.87}
{"Binder": "AbA (antibody, V domains shown, Human IgG1/lambda, transiently expressed; also called VHP/VL2) VH: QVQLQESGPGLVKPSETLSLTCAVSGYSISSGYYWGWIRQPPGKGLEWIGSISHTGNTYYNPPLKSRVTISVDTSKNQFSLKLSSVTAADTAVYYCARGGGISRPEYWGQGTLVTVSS VL: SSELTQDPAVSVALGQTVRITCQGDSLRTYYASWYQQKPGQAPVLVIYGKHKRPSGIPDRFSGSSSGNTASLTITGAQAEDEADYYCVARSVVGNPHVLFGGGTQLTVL", "Experimental Result": 0.97}
{"Binder": "AbK (antibody, IgG1, V domains shown, As for AbA: IgG1/lambda, CDR3 graft, residue limits derived; also called VH3/VL3) VH: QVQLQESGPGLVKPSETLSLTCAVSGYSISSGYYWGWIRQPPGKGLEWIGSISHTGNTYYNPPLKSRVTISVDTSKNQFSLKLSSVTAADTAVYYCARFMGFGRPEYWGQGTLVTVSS VL: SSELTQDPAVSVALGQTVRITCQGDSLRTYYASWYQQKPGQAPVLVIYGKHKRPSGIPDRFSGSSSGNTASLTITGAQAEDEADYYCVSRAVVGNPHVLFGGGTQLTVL", "Experimental Result": 0.98}
{"Binder": "AbB (antibody, IgG1, V domains shown, As for AbA: IgG1/lambda, CDR3 graft, residue limits derived; also called VHP/VL3) VH: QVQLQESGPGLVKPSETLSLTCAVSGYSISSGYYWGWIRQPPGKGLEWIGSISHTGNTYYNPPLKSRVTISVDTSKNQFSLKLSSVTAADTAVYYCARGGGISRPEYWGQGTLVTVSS VL: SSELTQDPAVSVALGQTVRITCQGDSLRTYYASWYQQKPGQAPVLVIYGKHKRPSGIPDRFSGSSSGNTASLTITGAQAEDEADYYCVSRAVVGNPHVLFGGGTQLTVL", "Experimental Result": 1.14}

Which measured Human IL-21R-BaF3 Proliferation IC50 value corresponds to AbN (antibody, IgG1, V domains shown, As for AbA: IgG1/lambda, CDR3 graft, residue limits derived; also called VH6/VL24) VH: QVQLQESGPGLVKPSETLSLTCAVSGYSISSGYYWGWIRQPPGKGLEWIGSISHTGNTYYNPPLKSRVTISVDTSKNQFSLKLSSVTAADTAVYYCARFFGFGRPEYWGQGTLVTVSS VL: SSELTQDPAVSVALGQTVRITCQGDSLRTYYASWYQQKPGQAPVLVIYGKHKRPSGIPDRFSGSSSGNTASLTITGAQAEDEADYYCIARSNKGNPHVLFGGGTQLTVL ?
0.5
